- Tested on: carbapenem resistant Acinetobacter baumannii
- Protocol notes: MIC of antibiotics with Compound 1 against panel of 503 carbapenem resistant Acinetobacter baumannii clinical isolates
- Format: cell-based
- Stated conditions: carbapenem resistant Acinetobacter baumannii (N = 503); antibiotic alone
Listed here are compounds together with their documented MIC50.

Reported MIC50 for CO/N=C(\C(=O)N[C@@H]1C(=O)N2C(C(=O)[O-])=C(C[N+]3(C)CCCC3)CS[C@H]12)c1csc(N)n1 [FEP, cefepime] was > 32 µg/mL

----------
- System: carbapenem resistant Enterobacteriaceae (CRE)
- Protocol notes: MIC of antibiotics with Compound 1 against panel of 510 CRE clinical isolates
- Type: cell-based
- Stated conditions: CRE OXA, N = 152; antibiotic alone
Value type: MIC50

Please review the following examples before continuing.
| Compound | Assayed system | Value type | Result |
| --- | --- | --- | --- |
| CO/N=C(\C(=O)N[C@@H]1C(=O)N2C(C(=O)[O-])=C(C[N+]3(C)CCCC3)CS[C@H]12)c1csc(N)n1 [FEP, cefepime] | carbapenem resistant Enterobacteriaceae (CRE) | MIC50 | > 32 µg/mL |
| Cn1c(N)c(NC(=O)NCCN)c[n+]1CC1=C(C(=O)O)N2C(=O)[C@@H](NC(=O)/C(=N\OC(C)(C)C(=O)[O-])c3nsc(N)n3)[C@H]2SC1 [TOL, ceftolozane] | carbapenem resistant Enterobacteriaceae (CRE) | MIC50 | > 32 µg/mL |
| CC(C)(O/N=C(\C(=O)N[C@@H]1C(=O)N2C(C(=O)[O-])=C(C[N+]3(CCNC(=O)c4ccc(O)c(O)c4Cl)CCCC3)CS[C@H]12)c1csc(N)n1)C(=O)O [DER, cefiderocol] | carbapenem resistant Enterobacteriaceae (CRE) | MIC50 | 1 µg/mL |

Continue with the next compound.
MIC50 reported for this compound C[C@@H](O)[C@H]1C(=O)N2C(C(=O)O)=C(S[C@@H]3CN[C@H](C(=O)N(C)C)C3)[C@H](C)[C@H]12 [MER, meropenem] : 32 µg/mL
